compounds and their reported φfl (fluorescence quantum yield)
Test: Spectroscopic data: absorption, emission, Stokes shift, extinction coefficient, fluorescence quantum yield
Assay type: physicochemical
Settings: solvent CHCl3; standards Rhodamine B or Rhodamine 6G in EtOH
From the text: Spectroscopic data of compounds 3a, 3b and 3d as well as comparative compounds Rhodamine B in EtOH or Rhodamine 6G in EtOH are used as standards for quantum yield measurements.
Number, no unit, nothing else.

COc1cc2c(cc1OC)C1=C3C(=O)N4C=Cc5cc(OC)c(OC)cc5C4=C3C(=O)N1C=C2 [V-1] :: 0.19

Which φfl (fluorescence quantum yield) reading was recorded for the compound COc1cccc(C2=CN3C(=O)C4=C5c6cc(OC)c(OC)cc6C(c6cccc(OC)c6)=CN5C(=O)C4=C3c3cc(OC)c(OC)cc32)c1 [3b] ? 0.85

Here is the next compound: CC(C)(C)c1cc(C(C)(C)C)c2oc3c(c2c1)C(c1ccccc1)=CN1C(=O)C2=C4c5oc6c(C(C)(C)C)cc(C(C)(C)C)cc6c5C(c5ccccc5)=CN4C(=O)C2=C31 [3d] 0.81

COc1cc2c(cc1OC)C1=C3C(=O)N4C=C(c5ccccc5)c5cc(OC)c(OC)cc5C4=C3C(=O)N1C=C2c1ccccc1 [3a] ? 0.89

Consider next the compound CC(C)(C)c1cc(C(C)(C)C)c2oc3c(c2c1)C=CN1C(=O)C2=C4c5oc6c(C(C)(C)C)cc(C(C)(C)C)cc6c5C=CN4C(=O)C2=C31 [V-2] in the same way. 0.05

====

Experiment: Spectroscopic data: absorption, emission, Stokes shift, extinction coefficient, fluorescence quantum yield
Assay type: physicochemical
Conditions: solvent CHCl3
Listing: maxλabs of selected compounds
Lab book: enter the figure in nm, no units written.

// worked examples, maxλabs included
COc1cccc(C2=CN3C(=O)C4=C5c6cc(OC)c(OC)cc6C(c6cccc(OC)c6)=CN5C(=O)C4=C3c3cc(OC)c(OC)cc32)c1 :: 601
COc1cc2c(cc1OC)C1=C3C(=O)N4C=Cc5cc(OC)c(OC)cc5C4=C3C(=O)N1C=C2 :: 593
CC(C)(C)c1cc(C(C)(C)C)c2oc3c(c2c1)C(c1ccccc1)=CN1C(=O)C2=C4c5oc6c(C(C)(C)C)cc(C(C)(C)C)cc6c5C(c5ccccc5)=CN4C(=O)C2=C31 :: 654

Query: maxλabs; subject: COc1cc2c(cc1OC)C1=C3C(=O)N4C=C(c5ccccc5)c5cc(OC)c(OC)cc5C4=C3C(=O)N1C=C2c1ccccc1 600

Likewise for CC(C)(C)c1cc(C(C)(C)C)c2oc3c(c2c1)C=CN1C(=O)C2=C4c5oc6c(C(C)(C)C)cc(C(C)(C)C)cc6c5C=CN4C(=O)C2=C31 ? 643

====

Test: Spectroscopic data: absorption, emission, Stokes shift, extinction coefficient, fluorescence quantum yield
Type: physicochemical
Settings: solvent CHCl3
Description: Spectroscopic data of compounds 3a, 3b and 3d as well as comparative compounds Rhodamine B in EtOH or Rhodamine 6G in EtOH are used as standards for quantum yield measurements.
Define the label as t when Stokes shift is strictly less than 200 cm⁻¹ and as f in all remaining cases.

CC(C)(C)c1cc(C(C)(C)C)c2oc3c(c2c1)C(c1ccccc1)=CN1C(=O)C2=C4c5oc6c(C(C)(C)C)cc(C(C)(C)C)cc6c5C(c5ccccc5)=CN4C(=O)C2=C31 [3d] :: t
COc1cccc(C2=CN3C(=O)C4=C5c6cc(OC)c(OC)cc6C(c6cccc(OC)c6)=CN5C(=O)C4=C3c3cc(OC)c(OC)cc32)c1 [3b] :: f
COc1cc2c(cc1OC)C1=C3C(=O)N4C=C(c5ccccc5)c5cc(OC)c(OC)cc5C4=C3C(=O)N1C=C2c1ccccc1 [3a] :: t

Next:
is_below(Stokes shift, 200 cm⁻¹) for CC(C)(C)c1cc(C(C)(C)C)c2oc3c(c2c1)C=CN1C(=O)C2=C4c5oc6c(C(C)(C)C)cc(C(C)(C)C)cc6c5C=CN4C(=O)C2=C31 [V-2] ? f

====

Assay: Spectroscopic data: absorption, emission, Stokes shift, extinction coefficient, fluorescence quantum yield
Format: physicochemical
Settings: solvent CHCl3
Source text: Spectroscopic data of compounds 3a, 3b and 3d as well as comparative compounds Rhodamine B in EtOH or Rhodamine 6G in EtOH are used as standards for quantum yield measurements.
Measured maxλem, listed per entry for reference.
Answer with a number only, understood to be in nm.

COc1cccc(C2=CN3C(=O)C4=C5c6cc(OC)c(OC)cc6C(c6cccc(OC)c6)=CN5C(=O)C4=C3c3cc(OC)c(OC)cc32)c1 :: 609
COc1cc2c(cc1OC)C1=C3C(=O)N4C=C(c5ccccc5)c5cc(OC)c(OC)cc5C4=C3C(=O)N1C=C2c1ccccc1 :: 605
CC(C)(C)c1cc(C(C)(C)C)c2oc3c(c2c1)C=CN1C(=O)C2=C4c5oc6c(C(C)(C)C)cc(C(C)(C)C)cc6c5C=CN4C(=O)C2=C31 :: 652
COc1cc2c(cc1OC)C1=C3C(=O)N4C=Cc5cc(OC)c(OC)cc5C4=C3C(=O)N1C=C2 :: 600

If you can, please state the reported maxλem value of CC(C)(C)c1cc(C(C)(C)C)c2oc3c(c2c1)C(c1ccccc1)=CN1C(=O)C2=C4c5oc6c(C(C)(C)C)cc(C(C)(C)C)cc6c5C(c5ccccc5)=CN4C(=O)C2=C31 . 661

====

Experiment: Spectroscopic data: absorption, emission, Stokes shift, extinction coefficient, fluorescence quantum yield
Type: physicochemical
Conditions: solvent CHCl3
As shown below, each of these compounds has a reported εmax value.
Please state the number and follow it with the unit.

Look over these answered cases.
CC(C)(C)c1cc(C(C)(C)C)c2oc3c(c2c1)C(c1ccccc1)=CN1C(=O)C2=C4c5oc6c(C(C)(C)C)cc(C(C)(C)C)cc6c5C(c5ccccc5)=CN4C(=O)C2=C31 [3d] :: 150000 M⁻¹ cm⁻¹
CC(C)(C)c1cc(C(C)(C)C)c2oc3c(c2c1)C=CN1C(=O)C2=C4c5oc6c(C(C)(C)C)cc(C(C)(C)C)cc6c5C=CN4C(=O)C2=C31 [V-2] :: 120000 M⁻¹ cm⁻¹
COc1cc2c(cc1OC)C1=C3C(=O)N4C=Cc5cc(OC)c(OC)cc5C4=C3C(=O)N1C=C2 [V-1] :: 110000 M⁻¹ cm⁻¹
COc1cc2c(cc1OC)C1=C3C(=O)N4C=C(c5ccccc5)c5cc(OC)c(OC)cc5C4=C3C(=O)N1C=C2c1ccccc1 [3a] :: 100000 M⁻¹ cm⁻¹

# ---- query compound ----
What does the data say about its εmax? Entry: COc1cccc(C2=CN3C(=O)C4=C5c6cc(OC)c(OC)cc6C(c6cccc(OC)c6)=CN5C(=O)C4=C3c3cc(OC)c(OC)cc32)c1 [3b] 85000 M⁻¹ cm⁻¹
